All values here come from the supplement of paper PMC4466140.

biological target: SpMyo1; test: SPOT peptide array binding signal intensity (averaged, normalized) (arbitrary units (background-subtracted, floor 0; scale differs between SH3 domains)); higher = stronger binding of the SH3 domain to the peptide
Examples of binders with documented SPOT peptide array binding signal intensity follow.
Please state the value as a number alone, without comment.

binder	observed-measurement
GKKVRPLLVLLLSRA	3.75
KFIPSRPAPKPPSSA	3260
NFKRLLPRDPSEKSS	7.25

Could you tell me which SPOT peptide array binding signal intensity is on file for `PKMLPIPSKPTLFDL` ? 82

Fill blank: measured SPOT peptide array binding signal intensity of the binder `FLIKFTPKFPQSIDH` is ____. 75

Fill in: SPOT peptide array binding signal intensity of `AERNYAPRLPRRETS` is ___ 11.5

Give its SPOT peptide array binding signal intensity value. Item: `DHPKGPPPPPPPDEK` 1880

Requested field: SPOT peptide array binding signal intensity. Item: `RSRRSSFAYPQQVAI` 6.75

If you can, please state the reported SPOT peptide array binding signal intensity value of `PPIPIVPSSPAPPLP` . 1080

Would you kindly share the measured SPOT peptide array binding signal intensity for `RPVPRRPSQPLNTLS` ? 37.8

Entry `VYTRTAFQIPGDDKI` : reported SPOT peptide array binding signal intensity = ? 3.5

Using the record for `EREKALPPIPFTTTL` , report its SPOT peptide array binding signal intensity. 32.5

Look at this binder and give its reported SPOT peptide array binding signal intensity. `LLIRWLILMPLVGSR` 18
